TEST_TARGET: AKT1 WT (Homo sapiens, UniProt P31749)
Construct: expressed in transfected cells; host or cells: HEK293
Sequence (P31749 whole entry): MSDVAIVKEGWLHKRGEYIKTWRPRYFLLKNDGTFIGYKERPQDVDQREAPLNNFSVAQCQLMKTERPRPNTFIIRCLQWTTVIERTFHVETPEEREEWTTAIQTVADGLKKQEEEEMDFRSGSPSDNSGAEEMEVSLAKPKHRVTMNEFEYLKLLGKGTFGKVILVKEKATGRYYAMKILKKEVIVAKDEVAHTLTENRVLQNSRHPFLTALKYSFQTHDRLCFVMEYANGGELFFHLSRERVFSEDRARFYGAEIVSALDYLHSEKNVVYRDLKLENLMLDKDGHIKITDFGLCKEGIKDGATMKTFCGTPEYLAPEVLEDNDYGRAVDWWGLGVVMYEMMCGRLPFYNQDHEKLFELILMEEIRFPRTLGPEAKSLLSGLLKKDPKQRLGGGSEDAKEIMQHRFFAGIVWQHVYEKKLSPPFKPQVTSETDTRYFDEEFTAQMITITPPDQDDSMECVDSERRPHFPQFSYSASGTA
TEST: Live cell AKT1 WT target engagement by NanoBRET competitive probe displacement in HEK293 cells
Format: binding
ASSAY_CONTEXT: NanoBRET competitive probe displacement, live HEK293 cells, 2 h at 37° C.; read-out: AKT1 WT IC50
MEASUREMENT_NAME: IC50

Examples with answers:
# COMPOUND, ENDPOINT_VALUE
data = [
    ("Nc1ncccc1-c1nc2ccc(-n3ccc(C4CCOCC4)n3)nc2n1-c1ccc2c(c1)CC[C@@H]2NC1CCN(C(=O)C2CC2)CC1 [Compound 487]", "42.8 nM"),
    ("Nc1ncccc1-c1nc2ccc(-n3ccc(OC(F)F)n3)nc2n1-c1ccc2c(c1)CC[C@@H]2NC(=O)c1cnc(C(F)F)s1 [Compound 534]", "38.9 nM"),
    ("CN(C)C(=O)c1cc(C(=O)N[C@H]2CCc3cc(-n4c(-c5cccnc5N)nc5ccc(-n6cccn6)nc54)ccc32)ccc1O [Compound 414]", "26.1 nM"),
    ("Cn1ccc(N2CCC(N[C@H]3CCc4cc(-n5c(-c6cccnc6N)nc6ccc(-n7ccc(N8CCC8)n7)nc65)ccc43)CC2)n1 [Compound 596]", "12.9 nM"),
    ("Nc1ncccc1-c1nc2ccc(-n3cccn3)nc2n1-c1ccc2c(c1)CC[C@@H]2NC1CN(C(=O)C2CC2)C1 [Compound 441]", "21.7 nM"),
]

[in] Quick one: IC50 for CS(=O)(=O)c1ccn(-c2ccc3nc(-c4cccnc4N)n(-c4ccc5c(c4)CC[C@@H]5NC4CCN(C(=O)C5CC5)CC4)c3n2)n1 [Compound 554] ?
[out] 339 nM

[in] How about this compound: Nc1ncccc1-c1nc2ccc(-n3cccn3)nc2n1-c1ccc2c(c1)CC[C@@H]2NC1CCN(C(=O)C2CCC2)CC1 [Compound 422]
[out] 67.9 nM

[in] How about this compound: CC#Cc1ccc2nc(-c3cccnc3N)n(-c3ccc4c(c3)CC[C@@H]4NC(=O)c3ccc(C(F)F)nc3)c2n1 [Compound 405]
[out] 46.2 nM

[in] How about this compound: Nc1ncccc1-c1nc2ccc(-n3cccn3)nc2n1-c1ccc2c(c1)CC[C@@H]2NC1CC2(CCCN(c3ccccn3)C2)C1 (stereo partly shown) [Compound 467]
[out] 358 nM

Value source: patent US12624034B2
